This collection of values is drawn from patent US9187472B2.

Observed pIC50 for UniProt P43490, reported per entry below.
pIC50 here is simply -log10 of the concentration when that concentration is written in mol/L.

| Compound | pIC50 |
| --- | --- |
| O=C(NCc1ccn2ccnc2c1)c1ccc(C2CN(C(=O)c3ccco3)C2)cc1 | 9.15 |
| O=C(NCc1ccn2ccnc2c1)c1ccc(C2CN(C(=O)c3ccc(F)cc3F)C2)cc1 | 9.16 |
| CC(C)C(=O)N1CCC(c2ccc(C(=O)NCc3ccn4ccnc4c3)cc2)C1 (centres unmarked) | 9.74 |

Let us move to another entry and its pIC50.
Which measured pIC50 value corresponds to O=C(Nc1ccc(C(=O)NCCOc2ccccc2)cc1)Nc1ccc2nccn2c1 ?
9.34

----------
- Target entity: NAMPT (human, recombinant, C-terminally His-tagged) (Homo sapiens, UniProt P43490)
- Sequence (P43490 whole entry): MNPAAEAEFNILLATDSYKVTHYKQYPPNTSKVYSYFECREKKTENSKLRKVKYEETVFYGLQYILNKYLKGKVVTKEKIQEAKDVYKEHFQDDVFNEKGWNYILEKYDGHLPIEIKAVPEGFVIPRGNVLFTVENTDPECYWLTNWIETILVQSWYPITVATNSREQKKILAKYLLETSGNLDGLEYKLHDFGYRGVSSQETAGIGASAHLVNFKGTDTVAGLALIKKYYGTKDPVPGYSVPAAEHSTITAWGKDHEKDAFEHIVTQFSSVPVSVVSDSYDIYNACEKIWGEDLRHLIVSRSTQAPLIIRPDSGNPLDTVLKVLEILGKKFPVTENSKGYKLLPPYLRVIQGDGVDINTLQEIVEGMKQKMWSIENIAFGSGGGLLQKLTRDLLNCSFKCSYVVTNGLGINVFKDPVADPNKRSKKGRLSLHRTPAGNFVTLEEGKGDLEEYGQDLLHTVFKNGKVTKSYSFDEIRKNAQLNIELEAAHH
- Experiment description: Time-Resolved Fluorescence Resonance Energy Transfer (TR-FRET) Binding Assay of NAMPT
- Details: without substrates; 6.8 nM NAMPT, 200 nM probe, 3 hours equilibration
Listing of entries alongside the reported pIC50.
pIC50 here is simply -log10 of the concentration when that concentration is written in mol/L.

Examples from the recorded data:
| Compound | Reported result |
| --- | --- |
| Cc1ccccc1C(=O)N1CC(c2ccc(C(=O)NCc3ccn4ccnc4c3)cc2)C1 | 7.09 |
| COCCn1cc(-c2ccc(NC(=O)NCc3ccn4ccnc4c3)cc2)cn1 | 6.34 |
| O=C(Nc1ccc(C(=O)NCCN2CCOCC2)cc1)Nc1ccc2nccn2c1 | 5.60 |
| CC[C@H](C)C(=O)NC1(c2ccc(C(=O)NCc3ccn4ccnc4c3)s2)CCC1 | 5.25 |
| CC(C)(O)C(=O)N1CCC(Oc2ccc(NC(=O)NCc3ccn4ccnc4c3)cc2)CC1 | 6.58 |
| CC(C)CC(=O)N1CCC(c2ccc(C(=O)NCc3ccn4ccnc4c3)s2)CC1 | 7.31 |
| O=C(NCc1ccn2ccnc2c1)c1ccc(C2CCN(C(=O)c3cccc(C(F)(F)F)c3)C2)cc1 (stereo not shown) | 6.15 |
| CC(C)(O)Cn1cc(-c2ccc(C(=O)NCc3ccn4ccnc4c3)cc2)cn1 | 5.47 |
| CC(C)(C)OC(=O)N1CC=C(c2ccc(NC(=O)NCc3ccn4ccnc4c3)c(F)c2)CC1 | 6.38 |
| O=C(NCc1ccn2ccnc2c1)c1ccc(C2CN(C(=O)CC3CC3)C2)cc1 | 6.40 |

Which measured pIC50 value corresponds to CC(C)OCC(=O)N1CCC(CCCCNC(=O)Nc2ccc3nccn3c2)CC1 ?
6.60

Which measured pIC50 value corresponds to O=C(CC1CCCC1)Nc1ccc(C(=O)NCc2ccn3ccnc3c2)cc1 ?
6.41

Which measured pIC50 value corresponds to CC1(Cn2cc(-c3ccc(C(=O)NCc4ccc5nccn5c4)s3)cn2)COC1 ?
7.70

----------
- Target entity: NAMPT (human, recombinant, C-terminally His-tagged) (Homo sapiens)
- Experiment description: Time-Resolved Fluorescence Resonance Energy Transfer (TR-FRET) Binding Assay of NAMPT
- Details: without substrates; 6.8 nM NAMPT, 200 nM probe, 3 hours equilibration
- Method: Determination of the utility of compounds having Formula (I) as binders to and inhibitors of NAMPT was performed using Time-Resolved Fluorescence Resonance Energy Transfer (TR-FRET) binding assays. Time-Resolved Fluorescence Resonance Energy Transfer (TR-FRET) Binding Assay of NAMPT […]
Listing of entries alongside the reported pIC50.
pIC50 here is simply -log10 of the concentration when that concentration is written in mol/L.

Examples from the recorded data:
| Compound | Reported result |
| --- | --- |
| O=C(NCCCCC1CCN(C(=O)c2ccccc2)CC1)Nc1ccn2ccnc2c1 [Example 270] | 7.22 |
| CC(C)(C)OC(=O)N1CCN(CCn2cc(-c3ccc(C(=O)NCc4ccn5ccnc5c4)s3)cn2)CC1 [Example 808] | 7.03 |
| O=C(NCc1ccn2ccnc2c1)Nc1ccc(C2CCN(C(=O)C3COCCO3)CC2)cc1 (stereo not shown) [Example 222] | 6.95 |
| COc1cccc(C(=O)N2CCC(c3ccc(C(=O)NCc4ccn5ccnc5c4)s3)C2)c1 (stereo not shown) [Example 759] | 7.55 |
| Cc1cc(C(=O)N2CCC(c3ccc(C(=O)NCc4ccn5ccnc5c4)cc3)CC2)c(C)o1 [Example 519] | 6.66 |

Let us move to another entry and its pIC50.
Which measured pIC50 value corresponds to CCS(=O)(=O)N1CC(c2ccc(C(=O)NCc3ccn4ccnc4c3)cc2)C1 [Example 567] ?
6.39
